src = the supplement of paper PMC8728848

Target: Gal3S6S(b1-4)GlcNAc6S
Experiment: glycan array binding signal (z-score within array); higher = stronger binding
Settings: glycan notation: IUPAC condensed, linker removed
The entries come from a sample that favours the strongest signals as a whole.
Readout name: glycan array binding signal (z-score)

[in] Param item = Clone730PsrP (Streptococcus pneumoniae) (protein) MDHHHHHHHHHHASENLYFQGAMVVGSQTAAATEATAKKVEEDRKKPASDYVASVTNVNLQSYAKRRKRSVDSIEQLLASIKNAAVFSGNTIVNGAPAINASLNIAKSETKVYTGEGVDSVYRVPIYYKLKVTNDGSKLTFTYTVTYVNPKTNDLGNISSMRPGYSIYNSGTSTQTMLTLGSDLGKPSGVKNYITDKNGRQVLSYNTSTMTTQGSGYTWGNGAQMNGFFAKKGYGLTSSWTVPITGTDTSFTFTPYAARTDRIGINYFNGGGKVVESSTT ; retrieve measured glycan array binding signal (z-score).
[out] -0.38
